# credit: patent US12522601B2

# TESTED_TARGET: human recombinant HDAC6 (Homo sapiens, UniProt Q9UBN7)
# Sequence (Q9UBN7 1-1215): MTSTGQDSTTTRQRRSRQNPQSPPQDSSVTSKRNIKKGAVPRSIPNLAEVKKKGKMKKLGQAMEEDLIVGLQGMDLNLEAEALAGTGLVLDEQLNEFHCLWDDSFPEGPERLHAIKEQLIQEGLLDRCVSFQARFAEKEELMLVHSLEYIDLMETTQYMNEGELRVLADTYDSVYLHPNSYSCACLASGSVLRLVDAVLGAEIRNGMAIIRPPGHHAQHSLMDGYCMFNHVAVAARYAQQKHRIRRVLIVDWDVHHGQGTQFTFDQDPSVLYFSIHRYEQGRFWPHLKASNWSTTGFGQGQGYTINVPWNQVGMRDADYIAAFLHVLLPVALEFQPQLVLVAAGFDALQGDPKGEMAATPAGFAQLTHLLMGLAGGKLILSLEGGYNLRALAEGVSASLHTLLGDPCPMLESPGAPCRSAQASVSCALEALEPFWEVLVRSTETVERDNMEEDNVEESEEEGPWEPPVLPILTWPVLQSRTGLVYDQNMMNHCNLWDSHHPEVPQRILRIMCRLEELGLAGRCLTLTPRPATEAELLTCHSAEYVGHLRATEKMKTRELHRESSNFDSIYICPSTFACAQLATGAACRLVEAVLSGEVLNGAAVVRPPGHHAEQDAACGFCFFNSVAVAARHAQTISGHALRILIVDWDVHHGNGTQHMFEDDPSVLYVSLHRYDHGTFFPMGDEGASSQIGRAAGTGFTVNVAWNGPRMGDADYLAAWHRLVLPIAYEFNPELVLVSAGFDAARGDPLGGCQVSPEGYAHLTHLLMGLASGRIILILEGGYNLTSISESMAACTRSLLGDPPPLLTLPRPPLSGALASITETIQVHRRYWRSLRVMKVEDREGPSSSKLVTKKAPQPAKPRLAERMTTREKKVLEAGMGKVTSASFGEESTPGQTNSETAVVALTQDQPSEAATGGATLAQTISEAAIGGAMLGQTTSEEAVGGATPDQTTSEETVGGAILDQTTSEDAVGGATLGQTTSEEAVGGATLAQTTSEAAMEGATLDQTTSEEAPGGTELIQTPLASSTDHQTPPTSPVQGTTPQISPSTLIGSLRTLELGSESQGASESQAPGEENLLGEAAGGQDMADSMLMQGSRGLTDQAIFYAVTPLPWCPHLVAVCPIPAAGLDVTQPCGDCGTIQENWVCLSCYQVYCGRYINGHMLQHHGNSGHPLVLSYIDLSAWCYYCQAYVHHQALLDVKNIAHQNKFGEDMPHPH
# METHOD_SUMMARY: In vitro HDAC enzyme activity inhibition assay, HDAC6 (HDAC Fluorimetric Drug Discovery Kit)
# DETAILS: human recombinant HDAC6, same protocol as the HDAC1 test
Lab note: anything with IC50 below 200 nM is marked Fulfilled; values at 200 nM or higher are marked Not fulfilled.

Fc1ccc(NCc2cn3ccc(-c4nnc(C(F)F)o4)cc3n2)cc1Cl [Compound 3672]
Fulfilled
CC(C)N1CC(C(=O)N(Cc2cn3ccc(-c4nnc(C(F)F)o4)cc3n2)c2cccc(F)c2)C1 [Compound 4190]
Fulfilled
CCN1CC(C(=O)N(Cc2cn3ccc(-c4nnc(C(F)F)o4)cc3n2)c2cccc(F)c2)C1 [Compound 4189]
Fulfilled
O=C(N1CCN(C2CCC2)CC1)N(Cc1cn2ccc(-c3nnc(C(F)F)o3)cc2n1)c1ccccc1 [Compound 4036]
Fulfilled
O=C(C1CN(C(=O)C(F)(F)F)C1)N(Cc1cn2ccc(-c3nnc(C(F)F)o3)cc2n1)c1ccccc1 [Compound 4172]
Not fulfilled
O=C(C1CCN(C2CCC2)CC1)N(Cc1cn2ccc(-c3nnc(C(F)F)o3)cc2n1)c1ccccc1 [Compound 4118]
Not fulfilled
